# Test system: Panel NCI-60 (60 carcinoma cell lines)
# EXPERIMENTAL_PROTOCOL: Anticancer activity against human Panel NCI-60 (60 carcinoma cell lines) line assessed as cell growth inhibition measured after 48 hrs by SRB assay
# Assay type: functional

>  <COMPOUND>
COc1cc(C(=O)Nc2cc3c(cc2Oc2cc(C)cc(C)c2)C(=O)N[C@@H](CC(=O)N2CCN(C)CC2)C(=O)N3)cc(OC)c1OC

>  <GI50>
1.58 µM

$$$$
>  <COMPOUND>
CCOC(=O)C1NC(=O)c2cc(Oc3cc(C)cc(C)c3)c(NC(=O)c3cc(OC)c(OC)c(OC)c3)cc2NC1=O (configuration not stated)

>  <GI50>
> 50 µM

$$$$
>  <COMPOUND>
CCc1noc(C[C@@H]2NC(=O)c3cc(Oc4cc(C)cc(C)c4)c(NC(=O)c4cc(OC)c(OC)c(OC)c4)cc3NC2=O)n1

>  <GI50>
0.27 µM

$$$$
>  <COMPOUND>
COc1cc(C(=O)Nc2cc3c(cc2Oc2cc(C)cc(C)c2)C(=O)N[C@@H](CC(=O)O)C(=O)N3)cc(OC)c1OC

>  <GI50>
> 50 µM

$$$$
>  <COMPOUND>
CCN(CC)C(=O)C[C@@H]1NC(=O)c2cc(Oc3cc(C)cc(C)c3)c(N(C)C(=O)c3cc(OC)c(OC)c(OC)c3)cc2NC1=O

>  <GI50>
> 50 µM

$$$$
>  <COMPOUND>
COC(=O)C[C@@H]1NC(=O)c2cc(C#Cc3cc(C)cc(C)c3)c(NC(=O)c3cc(OC)c(OC)c(OC)c3)cc2NC1=O

>  <GI50>
> 50 µM

$$$$
>  <COMPOUND>
CCc1nc(C[C@@H]2NC(=O)c3cc(Oc4cc(C)cc(C)c4)c(NC(=O)c4cc(OC)c(OC)c(OC)c4)cc3NC2=O)no1

>  <GI50>
0.36 µM

$$$$

* * *

# Tested on: A549
# EXPERIMENTAL_PROTOCOL: Anticancer activity against human A549 cells assessed as cell growth inhibition measured after 48 hrs by SRB assay
# Format: functional
MEASUREMENT_KIND: GI50 (nM)

>  <STRUCTURE_SMILES_STRING>
COC(=O)C[C@@H]1NC(=O)c2cc(OCCCc3cc(C)cc(C)c3)c(NC(=O)c3cc(OC)c(OC)c(OC)c3)cc2NC1=O

>  <TARGET_OF_ASSAY>
A549

>  <UNIT_ABBREVIATION>
nM

>  <MEASUREMENT_QUALIFIER>
>

>  <OBSERVED_MEASUREMENT>
50000

$$$$
>  <STRUCTURE_SMILES_STRING>
COC(=O)C[C@@H]1NC(=O)c2cc(Oc3cc(C)cc(C)c3)c(NC(=O)c3ccc(F)cc3)cc2NC1=O

>  <TARGET_OF_ASSAY>
A549

>  <UNIT_ABBREVIATION>
nM

>  <MEASUREMENT_QUALIFIER>
>

>  <OBSERVED_MEASUREMENT>
50000

$$$$
>  <STRUCTURE_SMILES_STRING>
CCN(CC)C(=O)C[C@@H]1NC(=O)c2cc(Oc3cc(C)cc(C)c3)c(NC(=O)c3c(F)c(OC)c(OC)c(OC)c3Cl)cc2NC1=O

>  <TARGET_OF_ASSAY>
A549

>  <UNIT_ABBREVIATION>
nM

>  <MEASUREMENT_QUALIFIER>
=

>  <OBSERVED_MEASUREMENT>
15

$$$$
>  <STRUCTURE_SMILES_STRING>
CCN(CC)C(=O)C[C@H]1C(=O)Nc2cc(NC(=O)c3cc(OC)c(OC)c(OC)c3)c(Oc3cc(C)cc(C)c3)cc2C(=O)N1CC

>  <TARGET_OF_ASSAY>
A549

>  <UNIT_ABBREVIATION>
nM

>  <MEASUREMENT_QUALIFIER>
=

>  <OBSERVED_MEASUREMENT>
148

$$$$

* * *

# Test system: Panel NCI-60 (60 carcinoma cell lines)
# EXPERIMENTAL_PROTOCOL: Anticancer activity against human Panel NCI-60 (60 carcinoma cell lines) line assessed as cell growth inhibition measured after 48 hrs by SRB assay
# Type: functional
Examples of compounds with documented log10 of GI50 follow.
MEASUREMENT_KIND: log10 of GI50 (log10 of the value in nM)

>  <STRUCTURE_SMILES_STRING>
COC(=O)C[C@@H]1NC(=O)c2cc(OCc3cc(C)cc(C)c3)c(NC(=O)c3cc(OC)c(OC)c(OC)c3)cc2NC1=O

>  <log10 of GI50>
3.48

$$$$
>  <STRUCTURE_SMILES_STRING>
CCN(CC)C(=O)C[C@H]1C(=O)Nc2cc(NC(=O)c3c(Cl)c(OC)c(OC)c(OC)c3Br)c(Oc3cc(C)cc(C)c3)cc2C(=O)N1C

>  <log10 of GI50>
1.83

$$$$
>  <STRUCTURE_SMILES_STRING>
CCN(CC)C(=O)C[C@@H]1NC(=O)c2cc(Oc3cc(C)c(Br)c(C)c3)c(NC(=O)c3cc(OC)c(OC)c(OC)c3)cc2NC1=O

>  <log10 of GI50>
2.37

$$$$
>  <STRUCTURE_SMILES_STRING>
CCN(CC)C(=O)C[C@@H]1NC(=O)c2cc(Oc3cc(C)cc(C)c3)c(NC(=O)c3c(F)c(OC)c(OC)c(OC)c3Cl)cc2NC1=O

>  <log10 of GI50>
1.36

$$$$
>  <STRUCTURE_SMILES_STRING>
COC(=O)C[C@@H]1NC(=O)c2cc(OCCc3cc(C)cc(C)c3)c(NC(=O)c3cc(OC)c(OC)c(OC)c3)cc2NC1=O

>  <log10 of GI50>
3.48

$$$$
>  <STRUCTURE_SMILES_STRING>
CCN(CC)C(=O)C[C@@H]1NC(=O)c2cc(Oc3cc(C)c(F)c(C)c3)c(NC(=O)c3cc(OC)c(OC)c(OC)c3Cl)cc2NC1=O

>  <log10 of GI50>
1.20

$$$$

* * *

# System: HCT-116
# EXPERIMENTAL_PROTOCOL: Anticancer activity against human HCT-116 cells assessed as cell growth inhibition measured after 48 hrs by SRB assay
# Type: functional
Simple rule here: GI50 less than 100 nM is 1, otherwise -1.

>  <STRUCTURE_SMILES_STRING>
CCCCN(CCCC)C(=O)C[C@@H]1NC(=O)c2cc(Oc3cc(C)cc(C)c3)c(NC(=O)c3cc(OC)c(OC)c(OC)c3)cc2NC1=O

>  <TARGET_OF_ASSAY>
HCT-116

>  <ASSIGNED_LABEL>
-1

$$$$
>  <STRUCTURE_SMILES_STRING>
CCN(CC)C(=O)C[C@H]1C(=O)Nc2cc(NC(=O)c3cc(OC)c(OC)c(OC)c3Cl)c(Oc3cc(C)cc(C)c3)cc2C(=O)N1C

>  <TARGET_OF_ASSAY>
HCT-116

>  <ASSIGNED_LABEL>
1

$$$$
>  <STRUCTURE_SMILES_STRING>
CCN(CC)C(=O)C[C@@H]1NC(=O)c2cc(Oc3cc(C)cc(C)c3)c(NC(=O)c3cc(OC)c(OC)c(OC)c3Cl)cc2NC1=O

>  <TARGET_OF_ASSAY>
HCT-116

>  <ASSIGNED_LABEL>
1

$$$$
>  <STRUCTURE_SMILES_STRING>
COC(=O)CC[C@@H]1NC(=O)c2cc(Oc3cc(C)cc(C)c3)c(NC(=O)c3cc(OC)c(OC)c(OC)c3)cc2NC1=O

>  <TARGET_OF_ASSAY>
HCT-116

>  <ASSIGNED_LABEL>
-1

$$$$
>  <STRUCTURE_SMILES_STRING>
CCN(CC)C(=O)C[C@@H]1NC(=O)c2cc(Oc3cc(C)cc(C)c3)c(NC(=O)c3cc(OC)c(OC)c(OC)c3)cc2N(C)C1=O

>  <TARGET_OF_ASSAY>
HCT-116

>  <ASSIGNED_LABEL>
-1

$$$$
>  <STRUCTURE_SMILES_STRING>
COC(=O)C[C@@H]1NC(=O)c2cc(Oc3cc(C)cc(C)c3)c(NC(=O)c3ccc(F)cc3)cc2NC1=O

>  <TARGET_OF_ASSAY>
HCT-116

>  <ASSIGNED_LABEL>
-1

$$$$
>  <STRUCTURE_SMILES_STRING>
COC(=O)C[C@H]1NC(=O)c2cc(Oc3cc(C)cc(C)c3)c(NC(=O)c3cc(OC)c(OC)c(OC)c3)cc2NC1=O

>  <TARGET_OF_ASSAY>
HCT-116

>  <ASSIGNED_LABEL>
-1

$$$$
>  <STRUCTURE_SMILES_STRING>
COC(=O)C[C@@H]1NC(=O)c2cc(OCc3cc(C)cc(C)c3)c(NC(=O)c3cc(OC)c(OC)c(OC)c3)cc2NC1=O

>  <TARGET_OF_ASSAY>
HCT-116

>  <ASSIGNED_LABEL>
-1

$$$$
>  <STRUCTURE_SMILES_STRING>
COC(=O)C[C@@H]1NC(=O)c2cc(Oc3cc(C)cc(C)c3)c(NCc3cc(OC)c(OC)c(OC)c3)cc2NC1=O

>  <TARGET_OF_ASSAY>
HCT-116

>  <ASSIGNED_LABEL>
-1

$$$$
>  <STRUCTURE_SMILES_STRING>
COC(=O)C[C@@H]1NC(=O)c2cc(Oc3cc(C)cc(C)c3)c(NC(=O)c3ccco3)cc2NC1=O

>  <TARGET_OF_ASSAY>
HCT-116

>  <ASSIGNED_LABEL>
-1

$$$$
>  <STRUCTURE_SMILES_STRING>
COc1cc(C(=O)Nc2cc3c(cc2Oc2cc(C)cc(C)c2)C(=O)N[C@@H](Cc2ncnn2C)C(=O)N3)cc(OC)c1OC

>  <TARGET_OF_ASSAY>
HCT-116

>  <ASSIGNED_LABEL>
1

$$$$
>  <STRUCTURE_SMILES_STRING>
COC(=O)C[C@@H]1NC(=O)c2cc(OC)c(NC(=O)c3cc(OC)c(OC)c(OC)c3)cc2NC1=O

>  <TARGET_OF_ASSAY>
HCT-116

>  <ASSIGNED_LABEL>
-1

$$$$
>  <STRUCTURE_SMILES_STRING>
COc1cc(C(=O)Nc2cc3c(cc2Oc2cc(C)cc(C)c2)C(=O)N[C@@H](CC(=O)N2CCN(C)CC2)C(=O)N3)cc(OC)c1OC

>  <TARGET_OF_ASSAY>
HCT-116

>  <ASSIGNED_LABEL>
-1

$$$$
>  <STRUCTURE_SMILES_STRING>
CCCCOC(=O)C[C@@H]1NC(=O)c2cc(Oc3cc(C)cc(C)c3)c(NC(=O)c3cc(OC)c(OC)c(OC)c3)cc2NC1=O

>  <TARGET_OF_ASSAY>
HCT-116

>  <ASSIGNED_LABEL>
-1

$$$$
